Values were extracted from patent US12365687B2.

# Assay system: human GABAA α1β3γ2 receptor (Homo sapiens (Human), UniProt P14867+P18507)
# Assay explanation: Radioligand binding assay for γ2-containing GABAA subtypes, [3H]Flumazenil competition (α1β3γ2)
# Experimental setup: Log[Ki α1β3γ2 (nM)/Ki α2β2γ1 (nM)]
LogSel strictly under 2 means YES; at 2 or over means NO.

>>> category_label("C[C@@H]1N=C(c2c(F)cccc2F)c2c(ccc(C(F)(F)F)c2Cl)-n2nc(C(=O)N3CC(O)C3)nc21 [Example 58]")
"NO"
>>> category_label("C[C@@H]1N=C(c2c(F)cccc2F)c2c(ccc(Cl)c2Cl)-n2nc(C(=O)N3CC4(CCCCO4)C3)nc21 [Example 96]")
"NO"
>>> category_label("CCOC1CN(C(=O)c2nc3n(n2)-c2ccc(Cl)c(Cl)c2C(c2ncccc2F)=N[C@H]3C)C1 [Example 86]")
"YES"
>>> category_label("COC1CN(C(=O)Nc2nc3n(n2)-c2ccc(Cl)c(Cl)c2C(c2c(F)cccc2F)=N[C@H]3C)C1 [Example 60]")
"YES"
>>> category_label("[2H]C([2H])([2H])OC1CN(C(=O)c2nc3n(n2)-c2ccc(Cl)c(Cl)c2C(c2ncccc2F)=N[C@H]3C)C1 [Example 39]")
"NO"

---

Measured Fold increase h-GABA-A α2β2γ1 oocyte @ 30-fold Ki, listed per entry.
# Assay system: α2β2γ1 GABAA receptor subtype (Homo sapiens (Human), UniProt P47869+Q8N1C3)
# Assay explanation: Two-electrode voltage clamp electrophysiology in Xenopus oocytes expressing GABAA receptors (modulation of GABA EC20 current)
# Type: cell-based
# Experimental setup: Xenopus oocytes expressing α2β2γ1; compound at approx. 30-fold its Ki α2β2γ1; GABA EC20 current
Measured attribute: Fold increase h-GABA-A α2β2γ1 oocyte @ 30-fold Ki

>>> reading("CNC(=O)c1cn2c(n1)CN=C(c1ncccc1F)c1c-2ccc(Cl)c1Cl")
2.25
>>> reading("C[C@@H]1N=C(c2c(F)cccc2F)c2c(ccc(Cl)c2Cl)-n2nc(C(=O)NCC(F)F)nc21")
1.74
>>> reading("COCCNC(=O)c1nc2n(n1)-c1ccc(Cl)c(Cl)c1C(c1c(F)cccc1F)=N[C@H]2C")
1.56
>>> reading("C[C@@H]1N=C(c2c(F)cccc2F)c2c(ccc(Cl)c2Cl)-n2nc(C(=O)N3CC[C@H](O)C3)nc21")
1.71
>>> reading("C[C@@H]1N=C(c2ncccc2F)c2c(ccc(Cl)c2Cl)-n2nc(C(=O)N3CC[C@H](F)C3)nc21")
2.29
>>> reading("C[C@@H]1N=C(c2ncccc2F)c2c(ccc(C(F)(F)F)c2Cl)-n2cc(C(=O)NC[C@@H](C)O)nc21")
2.91
>>> reading("C[C@@H]1N=C(c2c(F)cccc2F)c2c(ccc(Cl)c2Cl)-n2nc(S(N)(=O)=O)nc21")
1.97

---

Measured pKi, listed per entry.
# Assay system: human GABAA α1β3γ2 receptor (Homo sapiens (Human), UniProt P14867+P18507)
# Assay explanation: Radioligand binding assay for γ2-containing GABAA subtypes, [3H]Flumazenil competition (α1β3γ2)
pKi: −log10 of the molar value.
Measured attribute: pKi

>>> reading("Cc1cnc2n1-c1ccc(Br)c(Cl)c1C(c1c(F)cccc1F)=N[C@H]2C")
7.02
>>> reading("C[C@@H]1N=C(c2c(F)cccc2F)c2c(ccc(Cl)c2Cl)-n2nc(CO)nc21")
6.43
>>> reading("CO[C@H]1CCN(C(=O)c2nc3n(n2)-c2ccc(Cl)c(Cl)c2C(c2c(F)cccc2F)=N[C@H]3C)C1")
5.87
>>> reading("CCOC1CN(C(=O)c2nc3n(n2)-c2ccc(C(F)(F)F)c(Cl)c2C(c2ncccc2F)=N[C@H]3C)C1")
4.98

---

# Assay system: human GABAA α5β2γ1 receptor (Homo sapiens (Human), UniProt P31644+Q8N1C3)
# Assay explanation: Radioligand binding assay for γ1-containing GABAA subtypes, [3H]RO7239181 competition (α5β2γ1)
Measured Ki, listed per entry.
Measured attribute: Ki (nM)

>>> reading("[2H]C([2H])([2H])NC(=O)c1nc2n(n1)-c1ccc(C(F)(F)F)c(Cl)c1C(c1c(F)cccc1F)=N[C@H]2C [Example 34]")
2.11
>>> reading("CNC(=O)c1nc2n(n1)-c1ccc(Cl)c(Cl)c1C(c1c(F)cccc1F)=NC2 [Example 6]")
0.75
>>> reading("O=C(c1nc2n(n1)-c1ccc(Cl)c(Cl)c1C(c1c(F)cccc1F)=NC2)N1CCC1 [Example 8]")
1.08
>>> reading("C[C@@H]1N=C(c2c(F)cccc2F)c2c(ccc(Cl)c2Cl)-n2cc(C(=O)N3CC(C#N)C3)nc21 [Example 71]")
1.84
>>> reading("C[C@@H]1N=C(c2ncccc2F)c2c(ccc(C(F)(F)F)c2Cl)-n2nc(C(=O)N3CC[C@H](F)C3)nc21 [Example 123]")
9.75
>>> reading("C[C@@H]1N=C(c2ncccc2F)c2c(ccc(Cl)c2Cl)-n2nc(C(=O)N3CC[C@@H](F)C3)nc21 [Example 78]")
18.6
>>> reading("Cc1cn2c(n1)[C@H](C)N=C(c1c(F)cccc1F)c1c-2ccc(C(F)(F)F)c1Cl [Example 148]")
2.1
>>> reading("C[C@@H]1N=C(c2c(F)cccc2F)c2c(ccc(Cl)c2Cl)-n2nc(C(=O)N3CCS(=O)(=O)CC3)nc21 [Example 36]")
0.95
>>> reading("C[C@@H]1N=C(c2ncccc2F)c2c(ccc(C(F)(F)F)c2Cl)-n2nc(C(=O)N3CC4(CCCO4)C3)nc21 [Example 113]")
7.04
>>> reading("C[C@@H]1N=C(c2c(F)cccc2F)c2c(ccc(C(F)(F)F)c2Cl)-n2nc(NC(=O)NC3CC3)nc21 [Example 126]")
3.23
>>> reading("Cc1cnc2n1-c1ccc(C(F)(F)F)c(Cl)c1C(c1ncccc1F)=N[C@H]2C [Example 136]")
6.22
>>> reading("CCOC1CN(C(=O)c2nc3n(n2)-c2ccc(Cl)c(Cl)c2C(c2ncccc2F)=N[C@H]3C)C1 [Example 86]")
6.13
>>> reading("C[C@@H]1N=C(c2ncccc2F)c2c(ccc(Cl)c2Cl)-n2nc(C(=O)N3CC(O)C3)nc21 [Example 44]")
9.52
>>> reading("C[C@@H]1N=C(c2ncccc2F)c2c(ccc(C(F)(F)F)c2Cl)-n2nc(C(=O)NCCO)nc21 [Example 138]")
17.1
>>> reading("C[C@@H]1N=C(c2c(F)cccc2F)c2c(ccc(Cl)c2Cl)-n2nc(C3CC3)nc21 [Example 49]")
1.41
>>> reading("C[C@@H]1N=C(c2c(F)cccc2F)c2c(ccc(Cl)c2Cl)-n2nc(C(=O)NCCO)nc21 [Example 54]")
0.97
>>> reading("COC1CN(C(=O)c2nc3n(n2)-c2ccc(Cl)c(Cl)c2C(c2c(F)cccc2F)=N[C@H]3C)C1 [Example 16]")
1.2
>>> reading("Cc1c(C(=O)NCCO)nc2n1-c1ccc(C(F)(F)F)c(Cl)c1C(c1ncccc1F)=N[C@H]2C [Example 154]")
23
>>> reading("C[C@@H]1N=C(c2c(F)cccc2F)c2c(ccc(C(F)(F)F)c2Cl)-n2nc(C(=O)N3CC(C(F)F)C3)nc21 [Example 122]")
3.82
>>> reading("C[C@@H]1N=C(c2c(F)cccc2F)c2c(ccc(Cl)c2Cl)-n2nc(C(=O)N3CCC3)nc21 [Example 14]")
1.11
>>> reading("C[C@@H]1N=C(c2ncccc2F)c2c(ccc(C(F)(F)F)c2Cl)-n2nc(N3CCOC3=O)nc21 [Example 147]")
7.44
>>> reading("COC1CN(C(=O)Nc2nc3n(n2)-c2ccc(C(F)(F)F)c(Cl)c2C(c2c(F)cccc2F)=N[C@H]3C)C1 [Example 127]")
5.46
>>> reading("C[C@@H]1N=C(c2ncccc2F)c2c(ccc(Cl)c2Cl)-n2nc(C(=O)N3CC(OC(F)F)C3)nc21 [Example 90]")
6.09
>>> reading("OCc1cn2c(n1)CN=C(c1c(F)cccc1F)c1c-2ccc(Br)c1Cl [Example 4]")
1.14
>>> reading("C[C@@H]1N=C(c2ncccc2F)c2c(ccc(Cl)c2Cl)-n2nc(C(=O)N3CC4(CCO4)C3)nc21 [Example 98]")
29.8
>>> reading("C[C@@H]1N=C(c2c(F)cccc2F)c2c(ccc(C(F)(F)F)c2Cl)-n2nc(C(=O)NCCF)nc21 [Example 106]")
2.94
>>> reading("C[C@@H]1N=C(c2c(F)cccc2F)c2c(ccc(Cl)c2Cl)-n2nc(C(=O)N3CC4(CCCCO4)C3)nc21 [Example 96]")
2.65
>>> reading("C[C@@H]1N=C(c2c(F)cccc2F)c2c(ccc(C(F)(F)F)c2Cl)-n2nc(C(=O)N3CC(O)C3)nc21 [Example 58]")
2.3
>>> reading("C[C@@H]1N=C(c2c(F)cccc2F)c2c(ccc(Cl)c2Cl)-n2nc(C3COC3)nc21 [Example 81]")
1.63
